Tested on: Human ovarian cancer cell line SKOV3
Assay: Phototoxicity in SKOV3 cells after 660 nm laser or LED activation (AlamarBlue viability)
Assay type: cell-based
Settings: Homo sapiens, SK-OV-3, light or radiation study; SKOV3 cells; 24 hours uptake; 660 nm laser, 50 mW/cm^2 for 5 mins (15 J/cm^2); viability 24 hours after activation; read-out: Phototoxicity μM (IC90)
Method: Samples were stored at 4° C. protected from light. […] All data are shown as mean±SD (where appropriate). […] Laser and LED exposure induce an equivalent response in relation to phototoxicity. Following activation, cells were cultured for a further 24 hours. Media was then replaced with fresh media containing AlamarBlue, and % viable cells remaining assessed as above. […]
Where a SMILES comes first, the peptide text is derived from it. The star is where a group is joined. X1 = CCC1=C(C)c2cc3[nH]c(cc4nc(c(C)c5cc(C)c(cc1n2)[nH]5)[C@@H](CCC(=O)*)[C@@H]4C)c(C)c3CC
outcome_measure: IC90 (µM)

[[record]]
compound = "CCC1=C(C)c2cc3[nH]c(cc4nc(c(C)c5cc(C)c(cc1n2)[nH]5)[C@@H](CCC(=O)N(C)CCOCCOCC[P+](c1ccccc1)(c1ccccc1)c1ccccc1)[C@@H]4C)c(C)c3CC [Compound 16]"
outcome_measure = "IC90"
numeric_value = 0.011

[[record]]
compound = "CCC1=C(C)c2cc3[nH]c(cc4nc(c(C)c5cc(C)c(cc1n2)[nH]5)[C@@H](CCC(=O)N(C)CCO)[C@@H]4C)c(C)c3CC [Compound 19]"
outcome_measure = "IC90"
numeric_value = 0.061

[[record]]
compound = "CCC1=C(C)c2cc3[nH]c(cc4nc(c(C)c5cc(C)c(cc1n2)[nH]5)[C@@H](CCC(=O)N(C)CCCCCO)[C@@H]4C)c(C)c3CC [Compound 23]"
outcome_measure = "IC90"
numeric_value = 0.064

[[record]]
compound = "CCC1=C(C)c2cc3[nH]c(cc4nc(c(C)c5cc(C)c(cc1n2)[nH]5)[C@@H](CCC(=O)N[C@@H](CCCCN)C(=O)N[C@@H](CCCCN)C(=O)N[C@@H](CCCCN)C(=O)N[C@@H](CCCCN)C(=O)N[C@@H](CCCCN)C(=O)N(C)C)[C@@H]4C)c(C)c3CC [Compound 26] (X1-KKKKK-NMe2)"
outcome_measure = "IC90"
numeric_value = 0.494

[[record]]
compound = "CCC1=C(C)c2cc3[nH]c(cc4nc(c(C)c5cc(C)c(cc1n2)[nH]5)[C@@H](CCC(=O)N[C@@H]1C(O)O[C@H](CO)[C@@H](O)[C@@H]1O)[C@@H]4C)c(C)c3CC (stereo partly shown) [Compound 15]"
outcome_measure = "IC90"
numeric_value = 0.07

[[record]]
compound = "CCC1=C(C)c2cc3[nH]c(cc4nc(c(C)c5cc(C)c(cc1n2)[nH]5)[C@@H](CCC(=O)N(C)CCCCCCCCCC[P+](c1ccccc1)(c1ccccc1)c1ccccc1)[C@@H]4C)c(C)c3CC [Compound 21]"
outcome_measure = "IC90"
numeric_value = 0.022

[[record]]
compound = "CCC1=C(C)c2cc3[nH]c(cc4nc(c(C)c5cc(C)c(cc1n2)[nH]5)[C@@H](CCC(=O)N[C@H]1C(O)O[C@H](CO)[C@@H](O)[C@@H]1O)[C@@H]4C)c(C)c3CC (stereo partly shown) [Compound 3]"
outcome_measure = "IC90"
numeric_value = 0.043

[[record]]
compound = "CCC1=C(C)c2cc3[nH]c(cc4nc(c(C)c5cc(C)c(cc1n2)[nH]5)[C@@H](CCC(=O)N(C)CCOCCOCCO)[C@@H]4C)c(C)c3CC [Compound 12]"
outcome_measure = "IC90"
numeric_value = 0.078

[[record]]
compound = "CCC1=C(C)c2cc3[nH]c(cc4nc(c(C)c5cc(C)c(cc1n2)[nH]5)[C@@H](CCC(=O)N(C)CCCS[C@@H]1O[C@H](CO)[C@@H](O)[C@H](O)[C@H]1O)[C@@H]4C)c(C)c3CC [Compound 4]"
outcome_measure = "IC90"
numeric_value = 0.068

[[record]]
compound = "CCC1=C(C)c2cc3[nH]c(cc4nc(c(C)c5cc(C)c(cc1n2)[nH]5)[C@@H](CCC(=O)N(C)CCOCCOCCOCCOCCOCCOC)[C@@H]4C)c(C)c3CC [Compound 14]"
outcome_measure = "IC90"
numeric_value = 0.161

